These data points were gathered from patent US20240400689A1.

- Assayed Target: T1, HUMAN B7H3 (Biacore analyte) (human, UniProt Q5ZPR3 29-461, limits assumed)
- T1 construct: also called hB7H3
- T1 sequence (looked up): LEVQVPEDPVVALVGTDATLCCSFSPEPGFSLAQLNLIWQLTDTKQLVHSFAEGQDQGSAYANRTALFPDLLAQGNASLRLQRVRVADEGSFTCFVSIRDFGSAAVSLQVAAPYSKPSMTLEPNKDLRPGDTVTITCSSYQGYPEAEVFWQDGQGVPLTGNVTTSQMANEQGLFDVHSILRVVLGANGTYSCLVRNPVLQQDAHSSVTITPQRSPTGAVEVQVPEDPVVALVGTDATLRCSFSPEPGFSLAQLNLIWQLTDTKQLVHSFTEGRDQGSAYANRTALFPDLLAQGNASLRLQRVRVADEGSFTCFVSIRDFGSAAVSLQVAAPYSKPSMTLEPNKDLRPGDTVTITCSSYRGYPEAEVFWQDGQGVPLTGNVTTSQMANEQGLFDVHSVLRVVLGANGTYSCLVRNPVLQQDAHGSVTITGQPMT
- Assay: SPR, Biacore 8K, antibody captured, B7H3 as analyte, 1:1 binding
Kd by entry:
Value Type: Kd (nM)

INSERT INTO results (binder, assay_value) VALUES
  ('10-G6-C4-B2_hVH4-VL1_PTM (antibody, V domains shown, humanized, PTM-optimized antibody from 10-G6-C4-B2) VH: EVQLVESGGGLIQPGGSLRLSCATSGFTLSDYYMSWVRQPPGKGLEWVSFMRNKANAYTTEYSASVRGRFTISRDTSKSTIYLQMNSLRAEDTAVYYCVRDREGRPFAYWGQGTLVTVSS VL: DIVMTQSPDSLAVSLGERATINCKSSQSLLNAINQKNFLTWYQQKPGQPPKLLIYWASTRESGVPDRFSGSGSGTDFTLTISSLQAEDLAVYYCQNDYTYPLTFGQGTKLEIK', 1.73),
  ('10-G6-C4-B2_hVH5-VL1_PTM (antibody, V domains shown, humanized, PTM-optimized antibody from 10-G6-C4-B2) VH: EVQLVESGGGLVQPGRSLRLSCTTSGFTLSDYYMSWVRQAPGKGLEWVGFMRNKANAYTTEYSASVRGRFTISRDTSKSIIYLQMNSLKTEDTAVYYCVRDREGRPFAYWGQGTLVTVSS VL: DIVMTQSPDSLAVSLGERATINCKSSQSLLNAINQKNFLTWYQQKPGQPPKLLIYWASTRESGVPDRFSGSGSGTDFTLTISSLQAEDLAVYYCQNDYTYPLTFGQGTKLEIK', 0.0929),
  ('10-G6-C4-B2 (human IgG1 chimeric antibody) (antibody, V domains shown, human IgG1 chimeric antibody of the mouse clone) VH: EVQLVESGGGLVQPGGSLRLSCATSGFTLSDYYMSWVRQPPGKAPEWLGFMRNKANGYTTEYSASVRGRFTISRDTSQSIIYLQMNTLRAEDGATYYCVRDRDGRPFAYWGQGTLVTVSA VL: DIVMTQSPSSLTVTAGEKVTMSCKSSQSLLNSINQKNFLTWYQQKPGQPPKLLIYWASTRESGVPDRFTGSGSGTDFTLTISSVQAEDLAIYYCQNDYTYPLTFGTGTKLELK', 0.415),
  ('10-G6-C4-B2_hVH4-VL2_PTM (antibody, V domains shown, humanized, PTM-optimized antibody from 10-G6-C4-B2) VH: EVQLVESGGGLIQPGGSLRLSCATSGFTLSDYYMSWVRQPPGKGLEWVSFMRNKANAYTTEYSASVRGRFTISRDTSKSTIYLQMNSLRAEDTAVYYCVRDREGRPFAYWGQGTLVTVSS VL: DIVMTQSPLSLPVTPGEPASISCKSSQSLLNAINQKNFLTWYLQKPGQSPQLLIYWASTRESGVPDRFSGSGSGTDFTLKISRVEAEDLGVYYCQNDYTYPLTFGQGTKLEIK', 1.35),
  ('10-G6-C4-B2_hVH5-VL3_PTM (antibody, V domains shown, humanized, PTM-optimized antibody from 10-G6-C4-B2) VH: EVQLVESGGGLVQPGRSLRLSCTTSGFTLSDYYMSWVRQAPGKGLEWVGFMRNKANAYTTEYSASVRGRFTISRDTSKSIIYLQMNSLKTEDTAVYYCVRDREGRPFAYWGQGTLVTVSS VL: DIQMTQSPSSLSASVGDRVTITCKSSQSLLNAINQKNFLTWYQQKPGKAPKLLIYWASTRESGVPSRFSGSGSGTDFTLTISSLQPEDLATYYCQNDYTYPLTFGQGTKLEIK', 0.00692),
  ('10-G6-C4-B2_hVH3-VL3_PTM (antibody, V domains shown, humanized, PTM-optimized antibody from 10-G6-C4-B2) VH: EVQLVESGGGLVQPGGSLRLSCATSGFTLSDYYMSWVRQAPGKGLEWVGFMRNKANAYTTEYSASVRGRFTISRDTSKSSIYLQMNSLKTEDTAVYYCVRDREGRPFAYWGQGTLVTVSS VL: DIQMTQSPSSLSASVGDRVTITCKSSQSLLNAINQKNFLTWYQQKPGKAPKLLIYWASTRESGVPSRFSGSGSGTDFTLTISSLQPEDLATYYCQNDYTYPLTFGQGTKLEIK', 0.0087);
